# credit: ChEMBL document CHEMBL3102731

assay: Passive permeability of the compound at pH 7.4 by PAMPA; assay type: ADME
outcome measure: permeability
Express your answer as a number followed by its unit.

Q) Quote permeability reported for Cc1cc(-c2nnc3n2CCCCC3)c(C)n1-c1ccccc1 please.
A) 599 ×10⁻⁶ cm/s

Q) Quote permeability reported for Cc1cc(-c2nnc3n2CCCCC3)c(C)n1-c1cccc(Cl)c1 please.
A) 1100 ×10⁻⁶ cm/s

Q) Quote permeability reported for Cc1ccc(-n2c(C)cc(-c3nnc4n3CCCCC4)c2C)cc1 please.
A) 1330 ×10⁻⁶ cm/s

Q) Quote permeability reported for Cc1cc(-c2nnc3n2CCCCC3)c(C)n1-c1cccc(C(F)(F)F)c1 please.
A) 1510 ×10⁻⁶ cm/s

Q) Quote permeability reported for Cc1cccc(-n2cnc3cc(C(=O)N4CCCCC4)ccc32)c1 please.
A) 1200 ×10⁻⁶ cm/s

Q) Quote permeability reported for Cc1cc(-c2nnc3n2CCCCC3)c(C)n1-c1ccc(Cl)c(Cl)c1 please.
A) 1650 ×10⁻⁶ cm/s

Q) Quote permeability reported for Cc1cc(-c2nnc3n2CCCCC3)c(C)n1-c1cccc(C#N)c1 please.
A) 229 ×10⁻⁶ cm/s

Q) Quote permeability reported for O=C(c1ccc2c(c1)ncn2-c1cccc(C(F)(F)F)c1)N1CCCCC1 please.
A) 1350 ×10⁻⁶ cm/s

Q) Quote permeability reported for Cc1cccc(-n2cnc3cc(C(=O)N4CCCC(C)(C)C4)ccc32)c1 please.
A) 2260 ×10⁻⁶ cm/s

Q) Quote permeability reported for O=C(c1ccc2c(c1)ncn2-c1cccc(Cl)c1)N1CCCCC1 please.
A) 895 ×10⁻⁶ cm/s

Q) Quote permeability reported for COc1ccc(-n2cnc3cc(C(=O)N4CCCCC4)ccc32)cc1 please.
A) 624 ×10⁻⁶ cm/s

====

Would you kindly list pIC50 for each of these compounds?
Molecular target: 15-hydroxyprostaglandin dehydrogenase [NAD(+)] (Homo sapiens, UniProt P15428)
Sequence (P15428 whole entry): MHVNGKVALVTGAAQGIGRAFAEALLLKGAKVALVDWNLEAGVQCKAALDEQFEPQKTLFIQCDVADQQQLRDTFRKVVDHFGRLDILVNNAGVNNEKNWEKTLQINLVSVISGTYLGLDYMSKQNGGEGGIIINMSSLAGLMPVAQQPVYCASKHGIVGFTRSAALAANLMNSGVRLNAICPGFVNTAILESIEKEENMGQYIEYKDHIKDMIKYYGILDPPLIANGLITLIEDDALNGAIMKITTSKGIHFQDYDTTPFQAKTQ
In plain terms, pIC50 is the concentration in mol/L turned into minus its base-10 logarithm.

Q) Quote pIC50 reported for COc1ccccc1-n1cnc2cc(C(=O)N3CCCCC3)ccc21 please.
A) 7.57

Q) Quote pIC50 reported for Cc1cccc(-n2cnc3cc(C(=O)N4CCCCC4)ccc32)c1 please.
A) 7.72

Q) Quote pIC50 reported for CCOC(=O)c1ccc(-n2c(C)cc(-c3nnc4n3CCCCC4)c2C)cc1 please.
A) 7.42

Q) Quote pIC50 reported for Cc1cc(-c2nnc3n2CCCCC3)c(C)n1-c1ccc([N+](=O)[O-])cc1 please.
A) 6.97

====

Would you kindly list IC50 for each of these compounds?
Target: Aldehyde dehydrogenase 1A1 (Homo sapiens, UniProt P00352)
Sequence (P00352 whole entry): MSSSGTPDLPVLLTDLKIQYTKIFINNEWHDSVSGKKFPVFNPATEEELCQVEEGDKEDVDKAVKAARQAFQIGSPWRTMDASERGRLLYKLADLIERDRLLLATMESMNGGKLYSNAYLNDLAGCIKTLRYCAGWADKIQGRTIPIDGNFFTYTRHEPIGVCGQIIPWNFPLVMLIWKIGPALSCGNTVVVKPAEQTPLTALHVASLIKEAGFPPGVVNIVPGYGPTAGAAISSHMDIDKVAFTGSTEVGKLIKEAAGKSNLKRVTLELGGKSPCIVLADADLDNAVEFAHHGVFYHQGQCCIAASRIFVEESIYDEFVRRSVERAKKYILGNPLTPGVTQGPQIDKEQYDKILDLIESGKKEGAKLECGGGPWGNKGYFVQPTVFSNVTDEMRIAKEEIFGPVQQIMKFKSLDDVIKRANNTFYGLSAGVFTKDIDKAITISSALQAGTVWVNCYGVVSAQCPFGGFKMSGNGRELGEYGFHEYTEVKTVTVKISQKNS
Write the number in µM without appending the unit.

Q) Quote IC50 reported for Cc1cccc(-n2cnc3cc(C(=O)N4CCCC(C)(C)C4)ccc32)c1 please.
A) 1.92

Q) Quote IC50 reported for Cc1cc(-c2nnc3n2CCCCC3)c(C)n1-c1cccc(Cl)c1 please.
A) 4.82

Q) Quote IC50 reported for Cc1cc(-c2nnc3n2CCCCC3)c(C)n1-c1cccc(C(F)(F)F)c1 please.
A) 1.52

Q) Quote IC50 reported for Cc1ccc(-n2c(C)cc(-c3nnc4n3CCCCC4)c2C)cc1 please.
A) 2.41

Q) Quote IC50 reported for O=C(c1ccc2c(c1)ncn2-c1cccc(C(F)(F)F)c1)N1CCCCC1 please.
A) 6.81

Q) Quote IC50 reported for Cc1cc(-c2nnc3n2CCCCC3)c(C)n1-c1cccc(C#N)c1 please.
A) 6.81

====

Entries with reported log10 IC50 on 15-hydroxyprostaglandin dehydrogenase [NAD(+)] (Homo sapiens)
Remember, log10 of IC50, in nM.

Q) Quote log10 IC50 reported for O=C(c1ccc2c(c1)ncn2-c1cccc(C(F)(F)F)c1)N1CCCCC1 please.
A) 1.68

Q) Quote log10 IC50 reported for Cc1cc(-c2nnc3n2CCCCC3)c(C)n1-c1ccc(Br)cc1 please.
A) 1.68

Q) Quote log10 IC50 reported for Cc1cc(-c2nnc3n2CCCCCCC3)c(C)n1-c1ccccc1 please.
A) 2.58

Q) Quote log10 IC50 reported for O=C(c1ccc2c(c1)ncn2-c1ccc(Cl)cc1)N1CCCCC1 please.
A) 1.34

Q) Quote log10 IC50 reported for Cc1cccc(-n2cnc3cc(C(=O)N4CC(C)CC(C)C4)ccc32)c1 (stereo unspecified) please.
A) 2.43

Q) Quote log10 IC50 reported for Cc1ccc(-n2cnc3cc(C(=O)N4CCCCC4)ccc32)cc1 please.
A) 1.28

====

biological target: Peroxisomal multifunctional enzyme type 2 (Homo sapiens); assay: Inhibition of HSD17beta4 (unknown origin) using NAD+/estradiol as substrate at 324 pM to 57.2 uM after 15 mins by UV-fluorescence assay
Sequence (P51659 whole entry): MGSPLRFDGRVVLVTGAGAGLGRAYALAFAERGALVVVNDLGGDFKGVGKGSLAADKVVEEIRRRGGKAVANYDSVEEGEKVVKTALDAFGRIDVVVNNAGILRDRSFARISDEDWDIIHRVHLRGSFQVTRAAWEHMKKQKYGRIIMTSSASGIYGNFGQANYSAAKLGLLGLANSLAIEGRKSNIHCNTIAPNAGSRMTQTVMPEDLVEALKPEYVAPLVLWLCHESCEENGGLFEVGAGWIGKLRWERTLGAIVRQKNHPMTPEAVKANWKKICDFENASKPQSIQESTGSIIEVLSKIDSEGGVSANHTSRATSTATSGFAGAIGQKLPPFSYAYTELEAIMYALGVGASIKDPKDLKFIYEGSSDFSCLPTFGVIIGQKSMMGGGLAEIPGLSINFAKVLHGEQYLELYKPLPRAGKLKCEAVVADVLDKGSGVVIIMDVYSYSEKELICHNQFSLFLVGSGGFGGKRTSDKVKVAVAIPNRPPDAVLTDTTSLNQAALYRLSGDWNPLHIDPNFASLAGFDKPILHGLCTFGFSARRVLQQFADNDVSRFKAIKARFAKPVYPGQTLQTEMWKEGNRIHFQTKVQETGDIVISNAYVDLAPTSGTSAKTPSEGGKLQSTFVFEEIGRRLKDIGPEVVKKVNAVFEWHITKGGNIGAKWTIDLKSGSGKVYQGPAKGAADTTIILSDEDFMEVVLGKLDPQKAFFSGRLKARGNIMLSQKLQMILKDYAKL

# cpd smiles, IC50
data = [
    ("O=C(c1ccc2c(c1)ncn2-c1cccc(C(F)(F)F)c1)N1CCCCC1", "Not Active"),
    ("Cc1cc(-c2nnc3n2CCCCC3)c(C)n1-c1cccc(C(F)(F)F)c1", "Not Active"),
    ("Cc1ccc(-n2c(C)cc(-c3nnc4n3CCCCC4)c2C)cc1", "Not Active"),
]

====

tested on: A549; assay: Induction of PGE2 production in human A549 cells at 775 pM to 45.8 uM after 4 to 20 hrs by HTRF assay relative to control; assay type: functional
Would you kindly list Activity for each of these compounds?
Write the number in % without appending the unit.

Q) Quote Activity reported for Cc1cc(-c2nnc3n2CCCCC3)c(C)n1-c1cccc(C#N)c1 please.
A) 350

Q) Quote Activity reported for O=C(c1ccc2c(c1)ncn2-c1cccc(Cl)c1)N1CCCCC1 please.
A) 170

Q) Quote Activity reported for Cc1cccc(-n2cnc3cc(C(=O)N4CCCCC4)ccc32)c1 please.
A) 129

Q) Quote Activity reported for Cc1ccc(-n2c(C)cc(-c3nnc4n3CCCCC4)c2C)cc1 please.
A) 107

Q) Quote Activity reported for Cc1cccc(-n2cnc3cc(C(=O)N4CCCC(C)(C)C4)ccc32)c1 please.
A) 127

Q) Quote Activity reported for Cc1cc(-c2nnc3n2CCCCC3)c(C)n1-c1ccc(Cl)c(Cl)c1 please.
A) 110

Q) Quote Activity reported for Cc1cc(-c2nnc3n2CCCCC3)c(C)n1-c1cccc(C(F)(F)F)c1 please.
A) 145

Q) Quote Activity reported for O=C(c1ccc2c(c1)ncn2-c1cccc(C(F)(F)F)c1)N1CCCCC1 please.
A) 173

Q) Quote Activity reported for Cc1cc(-c2nnc3n2CCCCC3)c(C)n1-c1ccccc1 please.
A) 106

Q) Quote Activity reported for COc1ccc(-n2cnc3cc(C(=O)N4CCCCC4)ccc32)cc1 please.
A) 174

Q) Quote Activity reported for Cc1cc(-c2nnc3n2CCCCC3)c(C)n1-c1cccc(Cl)c1 please.
A) 114

====

Would you kindly list t1/2 for each of these compounds?
test system: Liver microsome; assay: Half life in rat liver microsomes in presence of NADPH; format: ADME
Write the number in min without appending the unit.

Q) Quote t1/2 reported for Cc1cc(-c2nnc3n2CCCCC3)c(C)n1-c1cccc(C(F)(F)F)c1 please.
A) 1.9

Q) Quote t1/2 reported for Cc1cccc(-n2cnc3cc(C(=O)N4CCCCC4)ccc32)c1 please.
A) 7.3

Q) Quote t1/2 reported for O=C(c1ccc2c(c1)ncn2-c1cccc(Cl)c1)N1CCCCC1 please.
A) 6.4

Q) Quote t1/2 reported for O=C(c1ccc2c(c1)ncn2-c1cccc(C(F)(F)F)c1)N1CCCCC1 please.
A) 4.4

Q) Quote t1/2 reported for COc1ccc(-n2cnc3cc(C(=O)N4CCCCC4)ccc32)cc1 please.
A) 23

Q) Quote t1/2 reported for Cc1cccc(-n2cnc3cc(C(=O)N4CCCC(C)(C)C4)ccc32)c1 please.
A) 1.8

Q) Quote t1/2 reported for Cc1cc(-c2nnc3n2CCCCC3)c(C)n1-c1cccc(C#N)c1 please.
A) 8.1

Q) Quote t1/2 reported for Cc1cc(-c2nnc3n2CCCCC3)c(C)n1-c1ccc(Cl)c(Cl)c1 please.
A) 1.9

Q) Quote t1/2 reported for Cc1ccc(-n2c(C)cc(-c3nnc4n3CCCCC4)c2C)cc1 please.
A) 1.8

Q) Quote t1/2 reported for Cc1cc(-c2nnc3n2CCCCC3)c(C)n1-c1cccc(Cl)c1 please.
A) 2
